# target-or-test-system: HMG-CoA reductase (in HEP-G2 cells) (Homo sapiens, UniProt P04035)
# Construct: endogenous in cells
# Sequence (P04035 whole entry): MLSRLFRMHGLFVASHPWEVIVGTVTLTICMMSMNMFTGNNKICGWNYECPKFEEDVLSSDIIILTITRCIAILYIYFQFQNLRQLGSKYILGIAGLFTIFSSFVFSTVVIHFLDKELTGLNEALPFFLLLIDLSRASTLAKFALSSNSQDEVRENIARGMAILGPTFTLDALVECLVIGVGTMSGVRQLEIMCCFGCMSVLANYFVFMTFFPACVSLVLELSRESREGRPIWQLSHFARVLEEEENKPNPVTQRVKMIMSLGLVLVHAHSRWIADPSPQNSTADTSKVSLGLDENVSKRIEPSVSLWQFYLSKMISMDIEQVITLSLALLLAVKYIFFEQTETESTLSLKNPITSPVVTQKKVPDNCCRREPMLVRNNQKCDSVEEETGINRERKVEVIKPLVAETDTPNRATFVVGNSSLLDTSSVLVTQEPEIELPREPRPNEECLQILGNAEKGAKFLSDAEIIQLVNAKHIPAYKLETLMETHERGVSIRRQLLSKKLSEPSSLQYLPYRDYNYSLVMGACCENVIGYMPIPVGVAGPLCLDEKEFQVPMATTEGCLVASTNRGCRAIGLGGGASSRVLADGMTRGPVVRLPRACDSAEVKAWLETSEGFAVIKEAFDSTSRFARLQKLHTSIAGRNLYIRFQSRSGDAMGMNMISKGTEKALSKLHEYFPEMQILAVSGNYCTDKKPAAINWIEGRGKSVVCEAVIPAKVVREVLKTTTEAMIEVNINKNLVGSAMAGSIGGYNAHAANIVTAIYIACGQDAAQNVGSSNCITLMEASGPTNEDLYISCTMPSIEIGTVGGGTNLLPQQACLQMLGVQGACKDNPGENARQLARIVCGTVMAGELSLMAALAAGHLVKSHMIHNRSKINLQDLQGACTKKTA
# protocol-description: Suppression or inhibition of HMG-CoA reductase in cell cultures (HEP-G2 cells; method described for fibroblasts, L cells)
Rule: IC50 below 200 µM gives Yes. Equal to or above 200 µM gives No.

Exercise: Strictly below 200 µM: is that where IC50 of O=C1C[C@H](O)C[C@@H](/C=C/c2c(Cl)cccc2CC2CCCCC2)O1 sits?
Solution: Yes

Exercise: Strictly below 200 µM: is that where IC50 of O=C1C[C@H](O)C[C@@H](/C=C/c2ccccc2CCc2ccc(F)cc2)O1 sits?
Solution: No

Exercise: Strictly below 200 µM: is that where IC50 of O=C1C[C@H](O)C[C@@H](/C=C/c2c(Cl)cc(Cl)cc2CC2CCCCC2)O1 sits?
Solution: Yes

Exercise: Strictly below 200 µM: is that where IC50 of O=C1C[C@H](O)C[C@@H](/C=C/c2ccccc2CC2CCCCC2)O1 sits?
Solution: No

Exercise: Strictly below 200 µM: is that where IC50 of O=C1C[C@H](O)C[C@@H](/C=C/c2c(Cl)cccc2Cc2ccc(Cl)cc2)O1 sits?
Solution: No
